Values were extracted from BindingDB's records for doi:10.1016/j.ejmech.2012.01.025.

- Subject Of Test: Delta-type opioid receptor (Homo sapiens, UniProt P41143)
- Sequence (P41143 whole entry): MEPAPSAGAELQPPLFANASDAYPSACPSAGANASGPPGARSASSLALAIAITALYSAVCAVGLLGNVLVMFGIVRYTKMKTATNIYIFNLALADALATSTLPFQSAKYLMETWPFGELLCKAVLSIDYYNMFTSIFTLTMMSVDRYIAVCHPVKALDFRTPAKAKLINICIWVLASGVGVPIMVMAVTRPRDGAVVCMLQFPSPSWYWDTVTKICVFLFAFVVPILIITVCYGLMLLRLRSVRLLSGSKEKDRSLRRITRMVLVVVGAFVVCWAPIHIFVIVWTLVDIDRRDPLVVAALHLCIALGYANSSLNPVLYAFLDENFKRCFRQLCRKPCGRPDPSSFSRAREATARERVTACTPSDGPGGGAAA
- Protocol: Displacement of [3H]-DADLE from human delta opioid receptor expressed in CHO cells membrane after 2 hrs by liquid scintillation counting
pKi: −log10 of the molar value.
Endpoint Label: pKi

INSERT INTO assay_data (smiles_input, endpoint_label, comparison_symbol, measured_value) VALUES
  ('Oc1cccc([C@@]23CCC[C@@H](C2)N(CCc2ccccc2)C[C@@H]3O)c1', 'pKi', '=', 5.24),
  ('CN1C[C@@H](O)[C@]2(c3cccc(O)c3)CCC[C@H]1C2', 'pKi', '<', 4.82),
  ('CN1CC2(OCCO2)[C@]2(c3cccc(O)c3)CCC[C@H]1C2', 'pKi', '<', 5.11),
  ('CN1C[C@H](O)[C@]2(c3cccc(O)c3)CCC[C@H]1C2', 'pKi', '=', 5.14),
  ('Oc1cccc([C@@]23CCC[C@@H](C2)N(CCc2ccccc2)C[C@H]3O)c1', 'pKi', '=', 6.00),
  ('CN1C2CCC[C@@](c3cccc(O)c3)(C2)[C@@H]1CO', 'pKi', '<', 5.00);
